Each recorded value in this set is attributed to patent US6500802B1.

assay: Solubility of inhibitors in Locke's buffer; format: physicochemical; conditions: Locke's buffer pH 7.4; sulfonic acids: buffer added to weighed sample at 20° C.; control aldehydes: by UV absorption of filtrate
Where a SMILES comes first, the peptide text is derived from it. [ ]: non-standard residue; d: D form. The star is where a group is joined. Gly(cPent) = N[CH](C(=O)O)C1CCCC1; Cbz = O=C(OCc1ccccc1)*; Abu = CC[CH](N)C(=O)O
PARAMETER_MEASURED: Solubility (µg/mL)
All answers are understood in µg/mL, so give the number only.

The cases that follow already have their Solubility on record.
CCC(C=O)NC(=O)C(CC(C)C)NC(=O)OCc1ccccc1 (stereo not drawn) [Cbz-Leu-Abu-H] (Cbz-Leu-[Abu]-aldehyde; configuration not given here)	210
O=CC(Cc1ccccc1)NC(=O)C(NC(=O)OCc1ccccc1)C1CCCC1 (stereo not drawn) [Cbz-CyclopentylGly-Phe-H] (Cbz-[Gly(cPent)]-Phe-aldehyde; configuration not given here)	80
CC(C)[C@H](NC(=O)OCc1ccccc1)C(=O)N[C@H](C=O)Cc1ccccc1 [Cbz-Val-Phe-H] (Cbz-Val-Phe-aldehyde)	180

Next up:
Exam item: In one line, give reported Solubility of the entry CC(C)C[C@H](NC(=O)N1CCc2ccccc2C1)C(=O)N[C@H](C=O)Cc1ccccc1 .
Marked response: 180
